Assay: chemical genetic growth profiling, strain panel (AID 1159580);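 also: tested at 20 µM; growth read once vehicle control cultures reached saturation at 30 °C; 1 = growth at the plate median or of vehicle wells; lower values mean less growth of the strain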
Settings: S. cerevisiae deletion strains, growth OD, locus YEL061C, strain CIN8 (second series), active compounds read low
Out of some 5,500 compounds screened, about 2,000 (36%) were called active. Another 18% or so got no clear call; they are omitted. The list shows a part of the results.
MEASUREMENT KIND: normalized growth
Hey, just send me the number, nothing else.

// below: answered compounds
[[record]]
compound = "CCCCC1C(=O)N(c2ccccc2)N(c2ccc(O)cc2)C1=O (stereo not drawn)"
experimental_result = 1

[[record]]
compound = "CO[C@@]1(NC(=O)C(C(=O)O)c2ccc(O)cc2)C(=O)N2C(C(=O)O)=C(CSc3nnnn3C)CO[C@@H]21 (stereo partly drawn)"
experimental_result = 0.982

[[record]]
compound = "CC(=O)OCC1=C(C(=O)O)N2C(=O)[C@@H](NC(=O)Cc3cccs3)[C@H]2SC1"
experimental_result = 1.01

[[record]]
compound = "COc1ccc(Cl)cc1C(=O)NCCc1ccc(S(=O)(=O)NC(=O)NC2CCCCC2)cc1"
experimental_result = 0.996

[[record]]
compound = "O=C(OC1Cc2c(O)cc(O)cc2OC1c1cc(=O)c(O)c2c(O)c(O)cc(C3Oc4cc(O)cc(O)c4CC3O)c2c1)c1cc(O)c(O)c(O)c1 (stereo not drawn)"
experimental_result = 0.992

[[record]]
compound = "CN1C[C@H](C(=O)N[C@]2(C)O[C@@]3(O)[C@@H]4CCCN4C(=O)[C@H](Cc4ccccc4)N3C2=O)C[C@@H]2c3cccc4[nH]cc(c34)C[C@H]21"
experimental_result = 0.994

[[record]]
compound = "O=C(O[C@@H]1Cc2c(O)cc(O)cc2O[C@@H]1c1cc(O)c(=O)c2c(O)c(O)cc([C@H]3Oc4cc(O)cc(O)c4C[C@H]3O)c2c1)c1cc(O)c(O)c(O)c1"
experimental_result = 0.936


Then there is this compound:
Return the recorded normalized growth value; entry: `O=C(O)C1=C[C@@H](O)[C@@H](O)[C@H](O)C1`
0.973

---

Assay: chemical genetic growth profiling, strain panel (AID 1159580);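 also: tested at 20 µM; growth read once vehicle control cultures reached saturation at 30 °C; 1 = growth at the plate median or of vehicle wells; lower values mean less growth of the strain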
Details: S. cerevisiae deletion strains, growth OD, locus YKR026C, strain gcn3, active compounds read low
In all, about 5,500 compounds went through this assay and about 2,000 (36%) were called active. Inconclusive results (about 18%) are left out. This is one part of the list. Where a SMILES comes first, the peptide text is derived from it.
MEASUREMENT KIND: normalized growth

// below: answered molecules
[[record]]
molecule = "OCC(O)C(O)C(O)C(O)C(O)CO (configuration not stated)"
experimental_result = "1.01 (inactive)"

[[record]]
molecule = "COc1ccc(-c2cc(=O)c3c(O)cc(O[C@@H]4O[C@H](CO[C@H]5O[C@H](C)[C@@H](O)[C@H](O)[C@@H]5O)[C@@H](O)[C@H](O)[C@H]4O)cc3o2)cc1O"
experimental_result = "1.01 (inactive)"

[[record]]
molecule = "COC(=O)[C@H](Cc1ccccc1)NC(=O)[C@@H](N)CC(=O)O (H-Asp-Phe-OMe)"
experimental_result = "1.02 (inactive)"

[[record]]
molecule = "CC1(C)C(=O)C=C[C@@]2(C)C1C[C@@H](O)[C@]1(C)C2CC[C@@]2(C)[C@H](c3ccoc3)OC(=O)[C@H]3O[C@]321 (some centres not stated)"
experimental_result = "0.995 (inactive)"

[[record]]
molecule = "O=c1cc(-c2ccc(O)cc2)oc2cc(O[C@@H]3O[C@H](CO)[C@@H](O)[C@H](O)[C@H]3O)cc(O)c12"
experimental_result = "1.01 (inactive)"


Return the recorded normalized growth value; entry: CC1(C)C2CC(=O)[C@]3(C)C(CC[C@@]4(C)[C@H](c5ccoc5)OC(=O)C5OC543)[C@@]2(C)[C@@H](O)C[C@H]1O (some centres not stated)
1.01 (inactive)

Return the recorded normalized growth value; entry: CCN(Cc1ccncc1)C(=O)C(CO)c1ccccc1 (configuration not stated)
1.04 (inactive)

Return the recorded normalized growth value; entry: `O=c1c(O)c(-c2ccc(O)c(O)c2)oc2cc(O)cc(O)c12`
1 (inactive)

Return the recorded normalized growth value; entry: CC(=O)OC(C)C[N+](C)(C)C (configuration not stated)
0.985 (inactive)
